system: C. elegans; assay: microbe, parasite or virus in culture; settings: Caenorhabditis elegans, 0 h, read-out: Percentage of motility inhibition 0 h, Table S2, C. elegans SS assay, 110 μM, 0 h, averages of 4 data points
The entries below are paired with their reported inhibition at 110 µM.
measured attribute: inhibition at 110 µM (%)

compound=CC(C)(C)NC(=O)[C@@H]1C[C@@H]2CCCC[C@@H]2CN1C[C@@H](O)[C@H](Cc1ccccc1)NC(=O)[C@H](CC(N)=O)NC(=O)c1ccc2ccccc2n1 tested_target="C. elegans" unit_string=% obs_value=37
compound=C=C(C)[C@H]1CN[C@H](C(=O)O)[C@H]1CC(=O)O tested_target="C. elegans" unit_string=% obs_value=0
compound="CC1=CC(=O)[C@@H](O)[C@]2(C)[C@H]3[C@@H](O)[C@H](O)[C@]4(CO)OC[C@@]35[C@@H](C[C@@H]12)OC(=O)[C@H](O)[C@]54O [Yadanziolide A]" tested_target="C. elegans" unit_string=% obs_value=0
compound=CC[C@@]1(O)C(=O)OCc2c1cc1n(c2=O)Cc2cc3ccccc3nc2-1 tested_target="C. elegans" unit_string=% obs_value=25
compound=N[C@@H](CS)C(=O)O tested_target="C. elegans" unit_string=% obs_value=4
compound="CC(C)=CC/C=C(\\C)[C@H]1CC[C@]2(C)[C@@H]1[C@H](O)C[C@@H]1[C@@]3(C)CC[C@H](O[C@@H]4O[C@H](CO)[C@@H](O)[C@H](O)[C@H]4O[C@@H]4O[C@H](CO)[C@@H](O)[C@H](O)[C@H]4O)C(C)(C)[C@@H]3CC[C@]12C [Ginsenoside Rg5]" tested_target="C. elegans" unit_string=% obs_value=0
